- Species: Rattus norvegicus
- test: Inhibition of rat intestinal alpha-glucosidase at 1 mg/ml using pNPG as substrate preincubated for 3 mins followed by substrate addition and measured after 30 mins relative to control
Active and inactive are the calls of the source. The rule behind the calls is not given here.
measured-attribute: inhibition

{"smiles-string": "OC[C@@H]1Oc2cc([C@@H]3OC[C@@H]4[C@H]3CO[C@H]4c3ccc4c(c3)O[C@@H](CO)[C@H](c3ccc(O)c(O)c3)O4)ccc2O[C@H]1c1ccc(O)c(O)c1", "assay-value": "inactive"}
{"smiles-string": "OC[C@H]1Oc2ccc([C@@H]3OC[C@@H]4[C@H]3CO[C@H]4c3ccc4c(c3)O[C@H](c3ccc(O)c(O)c3)[C@@H](CO)O4)cc2O[C@@H]1c1ccc(O)c(O)c1", "assay-value": "inactive"}
{"smiles-string": "OC/C=C/c1ccc2c(c1)O[C@@H](CO)[C@H](c1ccc3c(c1)O[C@H](CO)[C@@H](c1ccc(O)c(O)c1)O3)O2", "assay-value": "inactive"}
{"smiles-string": "OC/C=C/c1ccc2c(c1)O[C@H](c1ccc3c(c1)O[C@@H](c1ccc(O)c(O)c1)[C@H](CO)O3)[C@@H](CO)O2", "assay-value": "12%"}

====

- tested-on: Beta-glucuronidase (Escherichia coli (strain K12), UniProt P05804)
- Sequence (P05804 whole entry): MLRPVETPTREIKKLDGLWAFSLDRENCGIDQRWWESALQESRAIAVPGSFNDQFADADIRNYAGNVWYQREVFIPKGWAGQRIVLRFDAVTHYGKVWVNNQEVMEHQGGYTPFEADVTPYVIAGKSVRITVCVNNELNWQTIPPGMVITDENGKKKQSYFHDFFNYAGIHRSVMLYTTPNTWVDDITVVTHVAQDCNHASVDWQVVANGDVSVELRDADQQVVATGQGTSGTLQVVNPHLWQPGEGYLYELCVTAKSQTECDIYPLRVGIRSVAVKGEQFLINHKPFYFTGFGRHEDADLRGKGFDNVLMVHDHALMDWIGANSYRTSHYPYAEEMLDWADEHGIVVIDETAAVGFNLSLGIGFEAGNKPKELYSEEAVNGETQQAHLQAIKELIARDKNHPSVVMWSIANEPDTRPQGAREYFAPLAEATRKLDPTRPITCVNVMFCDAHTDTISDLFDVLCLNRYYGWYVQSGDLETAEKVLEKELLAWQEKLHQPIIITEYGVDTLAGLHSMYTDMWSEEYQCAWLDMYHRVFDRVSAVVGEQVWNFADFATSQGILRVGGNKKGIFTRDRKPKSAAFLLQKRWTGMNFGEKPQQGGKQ
- test: Inhibition of Escherichia coli beta-glucuronidase using 4-methylumbelliferyl-beta-D-glucuronide hydrate as substrate preincubated for 5 mins followed by substrate addition and measured after 30 mins by fluorescence method
Overview of reported log10 IC50 across a group of compounds:
Give log10 of IC50, with IC50 taken in µM.

{"smiles-string": "OC[C@H]1Oc2ccc([C@@H]3OC[C@@H]4[C@H]3CO[C@H]4c3ccc4c(c3)O[C@H](c3ccc(O)c(O)c3)[C@@H](CO)O4)cc2O[C@@H]1c1ccc(O)c(O)c1", "measured-attribute": "log10 IC50", "assay-value": -0.21}
{"smiles-string": "OC/C=C/c1ccc2c(c1)O[C@H](c1ccc3c(c1)O[C@@H](c1ccc(O)c(O)c1)[C@H](CO)O3)[C@@H](CO)O2", "measured-attribute": "log10 IC50", "assay-value": 0.84}
{"smiles-string": "O=C(O)[C@@H](O)[C@H]1OC(=O)[C@H](O)[C@H]1O", "measured-attribute": "log10 IC50", "assay-value": 1.39}
{"smiles-string": "OC/C=C/c1ccc2c(c1)O[C@@H](CO)[C@H](c1ccc3c(c1)O[C@H](CO)[C@@H](c1ccc(O)c(O)c1)O3)O2", "measured-attribute": "log10 IC50", "assay-value": 0.60}

# input compound: OC[C@@H]1Oc2cc([C@@H]3OC[C@@H]4[C@H]3CO[C@H]4c3ccc4c(c3)O[C@@H](CO)[C@H](c3ccc(O)c(O)c3)O4)ccc2O[C@H]1c1ccc(O)c(O)c1 ; wanted: its log10 IC50
-0.02

All values here come from ChEMBL document CHEMBL4610065.
